B1: library; a variant is named by its letters at N, in order (parent)
chain: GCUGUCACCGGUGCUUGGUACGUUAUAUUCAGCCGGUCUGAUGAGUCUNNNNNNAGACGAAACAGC

Variants of: B1
Experiment: normalized RNA/DNA level with ligand (relative to sTRSVctl = 100) (log10 (% of sTRSVctl)); HEK293T overexpressing SLC46A1; ligand concentration (+) RNA-Seq: 6 mM; higher = less ribozyme self-cleavage, higher mRNA level
Conditions: with (6R,S)-folinic acid; ligand present: yes
Quantity Kind: normalized RNA/DNA level with ligand (log10)
Could you keep your reply to the number by itself?

Worked set:
   variant_annotation  number
0              UCUGUU    2.06
1              AAGGCA    2.04

Incoming: Indicate its recorded normalized RNA/DNA level with ligand (log10); the variant in question is UUAAUG
Outgoing: 1.97

Incoming: Indicate its recorded normalized RNA/DNA level with ligand (log10); the variant in question is ACCCAA
Outgoing: 2.02

Incoming: Indicate its recorded normalized RNA/DNA level with ligand (log10); the variant in question is GCCAUG
Outgoing: 2.01

Incoming: Indicate its recorded normalized RNA/DNA level with ligand (log10); the variant in question is CUCGAU
Outgoing: 1.99

Incoming: Indicate its recorded normalized RNA/DNA level with ligand (log10); the variant in question is GGAGUC
Outgoing: 2.01

Incoming: Indicate its recorded normalized RNA/DNA level with ligand (log10); the variant in question is CGCACG
Outgoing: 2.03

Incoming: Indicate its recorded normalized RNA/DNA level with ligand (log10); the variant in question is GCAGAU
Outgoing: 2.02

Incoming: Indicate its recorded normalized RNA/DNA level with ligand (log10); the variant in question is GUAUUG
Outgoing: 2

Incoming: Indicate its recorded normalized RNA/DNA level with ligand (log10); the variant in question is GGCGUA
Outgoing: 2.04
